- EXPERIMENT: Polymorph obtained on crystallization of AAP from ethanol with or without crystalline substrate (DSC, XRPD)
- Assay type: physicochemical
- RUN CONDITIONS: supersaturation 0.49 with respect to Form I, substrate seeds added, DSC/XRPD, label = substrate
- Description: Such an observation implies that for both polymorphs their nucleation rate constants follow the relationship kI>kII. […] The crystallizations of AAP from ethanol were then repeated in the presence of 50 mg of 4-APAA seeds, added after the desired supersaturation had been achieved. Once crystallization occurred, the crystals were filtered immediately and analyzed by DSC and x-ray powder diffraction. […]
READOUT KIND: Polymorphic form of AAP crystallized in the presence of substrate

compound="[Cl-].[Na+] [Sodium Chloride, sodium chloride]" result="Form I"
compound="O.OC[C@H]1O[C@@H](O[C@H]2[C@H](O)[C@@H](O)[C@@H](O)O[C@@H]2CO)[C@H](O)[C@@H](O)[C@H]1O [α-LMH, α-lactose monohydrate]" result="Form I"
compound=OC[C@@H](O)[C@@H](O)[C@H](O)[C@H](O)CO result="Form I"
